- Test system: Saccharomyces cerevisiae
- protocol-text: protein stability index of tFT-peptide fusion (C-terminal peptide) (PSI (0-1 scale)); higher = more stable (slower turnover)
- measurement-context: genetic background: das1 deletion; temperature: 30 C
Can you tell me protein stability index for the items I'm about to list?
Provide a numeric answer; units are not to be included.

QUERY: State its protein stability index for this sequence: IAREIFHNVTNF [SEC39 C-terminal 12 aa]
RESULT: 0.724

QUERY: Please give the documented protein stability index of KSLAECQELLKN [TPD3 C-terminal 12 aa]
RESULT: 0.687

QUERY: Return reported protein stability index. Input sequence: TSGGSIVLKGSS [YGR068W-A C-terminal 12 aa]
RESULT: 0.701

QUERY: Name the recorded protein stability index of the item ESPTEDSVPHAE [CSA1 C-terminal 12 aa] in your answer.
RESULT: 0.709

QUERY: // fetch protein stability index given entry DYLYAKDDLLKW [GPP1 C-terminal 12 aa]
RESULT: 0.729

QUERY: Look up protein stability index of PLTLISLLFAFI [YPS1 C-terminal 12 aa] and report it.
RESULT: 0.619

QUERY: Specify reported protein stability index for the sequence shown: LKQKALVAAKQS [YJR015W C-terminal 12 aa]
RESULT: 0.679

QUERY: Check the records and state protein stability index for RCGALSEKLVFL [FMT1 C-terminal 12 aa]
RESULT: 0.694

QUERY: Answer with the recorded protein stability index of GWDRLVEARSQI [EMW1 C-terminal 12 aa] only.
RESULT: 0.727

QUERY: Check the records and state protein stability index for IKTDSVHELLKK [MFM1 C-terminal 12 aa]
RESULT: 0.704

QUERY: For the sequence QLESDPPPCDDY [RIM8 C-terminal 12 aa] , report protein stability index.
RESULT: 0.717

QUERY: Answer with the recorded protein stability index for the sequence listed here: TELRHKRTGGKH [ILV2 C-terminal 12 aa]
RESULT: 0.691

QUERY: // fetch protein stability index given entry RLKTGKKKGGPK [RRP14 C-terminal 12 aa]
RESULT: 0.691

QUERY: // Input: LLSAILDPSKSK [MED11 C-terminal 12 aa] . Output its protein stability index only.
RESULT: 0.709

QUERY: Consider the sequence DDNDDSDEREIW [UBR1 C-terminal 12 aa] . State its measured protein stability index.
RESULT: 0.699

QUERY: State, in one line, measured protein stability index of KKRISEKQHFIE [AMF1 C-terminal 12 aa]
RESULT: 0.689

QUERY: Given the sequence VYLSVIILMGNG [EMA17 C-terminal 12 aa] , write its reported protein stability index.
RESULT: 0.212

QUERY: Supply protein stability index value. Item: LKPWEGRIYLVK [MAL12 C-terminal 12 aa]
RESULT: 0.648

QUERY: Quote protein stability index reported for VKPSQDNVDSKD [OPI1 C-terminal 12 aa] please.
RESULT: 0.687

Hello, the source for this data is the supplement of paper PMC10724198, in case you need it.
